Target: T1, human MSLN-R3-his protein (human, UniProt Q13421 487-598)
T1 construct: it is put last here; also called human MSLN-R3 protein; hMSLN-R3-his; not shown: His tag
T1 sequence (Q13421 495-606): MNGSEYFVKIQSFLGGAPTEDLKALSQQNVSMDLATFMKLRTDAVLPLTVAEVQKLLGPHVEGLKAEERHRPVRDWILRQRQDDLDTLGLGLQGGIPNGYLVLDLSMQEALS
Experiment: ELISA on coated antigen, antibody 0.02 nM
Reported OD450 values follow for various binders
Answer in OD, number only, no unit symbol.

// Input: S009-F7.30.5 (antibody, human IgG1, kappa, V domains shown, Human-murine chimeric antibody, human IgG1 heavy and kappa light constant regions) VH: QVQLQQPKTELVKPGASVKLSCKASGYIFTTYWMHWVKQRPGQGLEWIGNVNPSNGGTMYNEKFERRATLTVDKSSSTADMQLSSLTSEDSAVYYCVPHYIGSRPGFAYWGQGTLVTVSG VL: DIVMTQSQKFMSTSVGDRVSVTCKASQNVGTNVAWYQHKPGQSPKALLYSASYRYSGVPDRFTGSGSGTDFTLTITNVQSEDLAEYFCQQYNSYPLTFGGGTKLEIKR . Output its OD450 only. 1.7
